Experiment: Clearance in iv-dosed Wistar rat measured after 24 hrs by HPLC-MS/MS analysis
Type: ADME
Settings: in vivo
Reported endpoint: CL (mL/min/kg)

Example entries begin here.
>>> observed_value("O=C1NC(=O)C(CNC(=O)c2ccccc2-c2ccc(C(F)(F)F)cc2)(c2cscn2)N1 (stereo not given)")
23.3
>>> observed_value("Cn1nccc1[C@]1(CNC(=O)c2ccc(F)cc2-c2ccc(C(F)(F)F)cc2)NC(=O)NC1=O")
15
>>> observed_value("O=C1NC(=O)[C@](CNC(=O)c2cnn(-c3ccccc3)n2)(C2CC2)N1")
12

I: O=C1NC(=O)[C@](CNC(=O)c2ccccc2-c2ccc(C(F)(F)F)cc2)(C2CC2)N1
II: Cc1scnc1C1(CNC(=O)c2ccccc2-c2ccc(C(F)(F)F)cc2)NC(=O)NC1=O (stereo not given)
For this pair, I and II , which shows a numerically higher CL? Respond with the label that goes with your answer.
II
(II: 20 mL/min/kg, I: 1.7 mL/min/kg)

----------
Experiment: Clearance in iv-dosed Wistar rat measured after 24 hrs by HPLC-MS/MS analysis
Format: ADME
Conditions: in vivo
Reported endpoint: CL (L/kg/h)

>>> observed_value("Cn1nccc1[C@]1(CNC(=O)c2cc(F)ccc2-c2ccc(C(F)(F)F)cc2)NC(=O)NC1=O")
0.6
>>> observed_value("Cn1nccc1[C@]1(CNC(=O)c2ccc(F)c(F)c2-c2ccc(C(F)(F)F)cc2)NC(=O)NC1=O")
0.6

P: Cn1nccc1[C@]1(CNC(=O)c2cccc(F)c2-c2ccc(C(F)(F)F)cc2)NC(=O)NC1=O
Q: CCn1nccc1C1(CNC(=O)c2ccccc2-c2ccc(C(F)(F)F)cc2)NC(=O)NC1=O (centres undefined)
For P and Q , which recorded CL is lower? Respond with the label that goes with your answer.
P

----------
Assay: Selectivity ratio of IC50 for ADAM17 (unknown origin) to IC50 for ADAMTS7 (unknown origin)
Reported endpoint: Ratio IC50

>>> observed_value("O=C1NC(=O)[C@](CNC(=O)c2cnn(-c3ccc(F)cc3)n2)(C2CC2)N1")
863
>>> observed_value("Cn1nccc1[C@]1(CNC(=O)c2ccc(F)c(F)c2-c2ccc(C(F)(F)F)cc2)NC(=O)NC1=O")
962
>>> observed_value("Cn1nc(-c2ccccc2)cc1C1(CNC(=O)c2ccc(F)c(F)c2-c2ccc(C(F)(F)F)cc2)NC(=O)NC1=O (stereo not given)")
863

a: Cc1ccc(-c2ccccc2C(=O)NC[C@@]2(C3CC3)NC(=O)NC2=O)cc1
b: Cn1nccc1[C@]1(CNC(=O)c2ccccc2-c2ccc(C(F)(F)F)cc2)NC(=O)NC1=O
For this pair, a and b , which shows a numerically higher Ratio IC50? Respond with the label that goes with your answer.
a

----------
Assay: Selectivity ratio of IC50 for ADAMTS4 (unknown origin) to IC50 for ADAMTS7 (unknown origin)
Reported endpoint: Ratio IC50

>>> observed_value("Cn1nccc1[C@]1(CNC(=O)c2ccc(F)c(F)c2-c2ccc(C(F)(F)F)cc2)NC(=O)NC1=O")
1120

P: Cn1nccc1[C@]1(CNC(=O)c2ccccc2-c2ccc(C(F)(F)F)cc2)NC(=O)NC1=O
Q: Cc1ccc(-c2ccccc2C(=O)NC[C@@]2(C3CC3)NC(=O)NC2=O)cc1
For this pair, P and Q , which shows a numerically higher Ratio IC50? Respond with the label that goes with your answer.
P
(P: 1440, Q: 115)
